Data provenance is patent US10988477B2.

Target: intracellular GCN2 (phosphorylation of the GCN2 substrate eIF2α) (Homo sapiens, UniProt Q9P2K8)
Sequence (Q9P2K8 whole entry): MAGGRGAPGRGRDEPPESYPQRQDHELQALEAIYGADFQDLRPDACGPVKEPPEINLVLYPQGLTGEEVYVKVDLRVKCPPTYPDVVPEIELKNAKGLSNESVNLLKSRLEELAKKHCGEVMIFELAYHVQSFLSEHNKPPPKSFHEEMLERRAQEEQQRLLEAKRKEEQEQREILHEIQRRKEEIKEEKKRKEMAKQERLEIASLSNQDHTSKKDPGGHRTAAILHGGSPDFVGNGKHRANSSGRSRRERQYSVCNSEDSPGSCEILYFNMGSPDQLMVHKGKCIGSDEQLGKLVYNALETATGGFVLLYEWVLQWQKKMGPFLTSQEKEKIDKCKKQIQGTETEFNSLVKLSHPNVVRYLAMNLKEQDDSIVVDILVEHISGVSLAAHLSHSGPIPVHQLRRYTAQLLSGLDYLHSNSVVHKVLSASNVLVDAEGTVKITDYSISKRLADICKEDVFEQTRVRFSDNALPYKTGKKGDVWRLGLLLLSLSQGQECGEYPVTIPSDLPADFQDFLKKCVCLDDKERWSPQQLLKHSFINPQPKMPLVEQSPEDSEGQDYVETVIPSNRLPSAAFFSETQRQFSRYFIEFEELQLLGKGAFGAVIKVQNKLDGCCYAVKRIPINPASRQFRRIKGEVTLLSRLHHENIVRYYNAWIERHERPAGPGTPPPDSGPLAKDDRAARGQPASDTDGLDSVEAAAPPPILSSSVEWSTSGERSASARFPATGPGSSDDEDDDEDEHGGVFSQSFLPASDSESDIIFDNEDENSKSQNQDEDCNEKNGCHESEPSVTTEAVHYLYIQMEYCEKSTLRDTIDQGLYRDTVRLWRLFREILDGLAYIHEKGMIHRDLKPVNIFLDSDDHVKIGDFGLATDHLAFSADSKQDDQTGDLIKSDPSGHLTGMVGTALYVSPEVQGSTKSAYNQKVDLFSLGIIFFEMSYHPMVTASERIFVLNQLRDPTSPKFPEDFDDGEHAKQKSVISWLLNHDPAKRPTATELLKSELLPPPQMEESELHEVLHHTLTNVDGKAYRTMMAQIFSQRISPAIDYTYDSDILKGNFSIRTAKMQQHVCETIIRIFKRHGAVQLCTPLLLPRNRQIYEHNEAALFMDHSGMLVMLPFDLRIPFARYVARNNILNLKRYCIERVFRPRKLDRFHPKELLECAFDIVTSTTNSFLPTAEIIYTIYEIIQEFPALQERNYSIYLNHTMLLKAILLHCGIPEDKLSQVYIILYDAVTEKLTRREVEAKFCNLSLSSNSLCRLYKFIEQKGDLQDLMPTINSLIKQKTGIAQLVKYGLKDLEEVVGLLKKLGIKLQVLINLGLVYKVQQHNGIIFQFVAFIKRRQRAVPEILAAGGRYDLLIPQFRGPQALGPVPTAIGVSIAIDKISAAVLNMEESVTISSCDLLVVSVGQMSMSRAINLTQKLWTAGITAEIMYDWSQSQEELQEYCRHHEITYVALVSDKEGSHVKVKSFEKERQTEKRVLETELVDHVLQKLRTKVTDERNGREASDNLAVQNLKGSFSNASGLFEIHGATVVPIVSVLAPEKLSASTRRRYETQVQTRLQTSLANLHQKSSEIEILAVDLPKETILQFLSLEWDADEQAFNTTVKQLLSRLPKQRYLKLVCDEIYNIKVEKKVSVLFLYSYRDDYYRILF
Assay: GCN2 cellular inhibition assay (AlphaScreen SureFire P-eIF2α Ser51, borrelidin-treated U2OS cells)
Assay type: cell-based
Details: compounds of Formula II; biomarker assay, phosphorylated eIF2α Ser51 in borrelidin-treated U2OS cells
pIC50: −log10 of the molar value.
measured quantity: pIC50

Observe how each entry below is paired with its result.
IN: Give its pIC50 value. Item: CS(=O)(=O)NCC1CCCN(c2cc(-c3cnc4ccc(C(F)F)nn34)cc(O)n2)C1 (centres unmarked) [II-141]
OUT: 5.30 to 6.30

IN: Please answer likewise for O=C1OC2(CC2)[C@@H]2CN(c3cc(-c4cnc5ccc(C(F)(F)F)nn45)ccn3)CCN12 [II-226]
OUT: 5.30 to 6.30

IN: Please answer likewise for CS(=O)(=O)NCC1(O)CCN(c2cc(-c3cnc4ccc(C(F)F)nn34)ncn2)C1 (centres unmarked) [II-137]
OUT: < 5.30

IN: Please answer likewise for CS(=O)(=O)CC1CCCN(c2cc(-c3cnc4ccc(C(F)F)nn34)ncn2)C1 (centres unmarked) [II-430]
OUT: 5.30 to 6.30

IN: Please answer likewise for CC1C2COC(=O)N2CCN1c1cc(-c2cnc3ccc(C(F)F)nn23)ncn1 (centres unmarked) [II-547]
OUT: 5.30 to 6.30

// input: 3 compounds below; output: pIC50 for each
1. CN(C)C1CN(c2cc(-c3cnc4ccc(C(F)F)nn34)ncn2)CC(CNS(C)(=O)=O)C1(F)F (centres unmarked) [II-259]
2. CC1CN(c2cc(-c3cnc4ccc(C(F)F)nn34)ncn2)C(C)C(CNS(C)(=O)=O)N1 (centres unmarked) [II-427]
3. OC[C@@H]1CN(c2cc(-c3cnc4ccc(C(F)F)nn34)ncn2)C[C@@H](C(F)(F)F)O1 [II-297]

OUT:
1: > 6.30; 2: > 6.30; 3: 5.30 to 6.30

----------
Target: GCN2 kinase (Homo sapiens)
Experiment: GCN2 enzyme inhibition assay (Transcreener ADP2 fluorescence polarization)
Type: biochemical
Details: Enzyme activity for compounds of Formula IV; Ki(app), 280 μM ATP, 25° C.
pKi: −log10 of the molar value.
measured quantity: pKi

Observe how each entry below is paired with its result.
IN: Give its pKi value. Item: FC(F)(F)c1cn2c(-c3nccc(N4CCCC(c5cn[nH]c5)C4)n3)cnc2cn1 (single isomer, unassigned) [IV-546]
OUT: > 8.00

IN: Please answer likewise for NC(=O)c1cc(C2CCCN(c3ccnc(-c4cnc5cnc(C(F)F)cn45)n3)C2)n[nH]1 (centres unmarked)
OUT: 6.00 to 7.00

IN: Please answer likewise for CC1C(c2cn[nH]c2)NCCN1c1ccnc(-c2cnc3cnccn23)n1 (centres unmarked)
OUT: 6.00 to 7.00

IN: Please answer likewise for CN1CCN(c2ccnc(-c3cnc4cnc(C(F)(F)F)cn34)n2)CC1C(N)=O (centres unmarked)
OUT: 6.00 to 7.00

IN: Please answer likewise for CC(C)(O)C1CCN(c2cccc(-c3cnc4cnc(C(N)=O)cn34)n2)CC1
OUT: 7.00 to 8.00

// input: 3 compounds below; output: pKi for each
1. O=C1CN(C2CCCN(c3ccnc(-c4cnc5cnc(C(F)(F)F)cn45)n3)C2)CCN1 (centres unmarked)
2. FC(F)(F)c1cn2c(-c3nccc(N4CCCC(C5CNC5)C4)n3)cnc2cn1 (centres unmarked)
3. FC(F)(F)c1cn2c(-c3nccc(N4CC5CCOC5C4)n3)cnc2cn1 (centres unmarked)

OUT:
6.00 to 7.00
6.00 to 7.00
6.00 to 7.00

----------
Biological target: GCN2 kinase (Homo sapiens, UniProt Q9P2K8)
Sequence (Q9P2K8 whole entry): as above
Experiment: GCN2 enzyme inhibition assay (Transcreener ADP2 fluorescence polarization)
Type: biochemical
Details: compounds of Formula II; 280 μM ATP, 4 nM GCN2 kinase
measured quantity: Ki

IN: Give its Ki value. Item: OC[C@@H]1CCCN(c2cc(-c3cnc4ccc(C(F)(F)F)nn34)ncn2)C1 [II-517]
OUT: 10 to 1000 nM

// input: 3 molecules below; output: Ki for each
1. CC1CC(F)(F)C(CNS(C)(=O)=O)CN1c1cc(-c2cnc3ccc(C(F)F)nn23)ncn1 (single isomer, unassigned) [II-305]
2. CS(=O)(=O)NCC1CCCN(c2cc(-c3cnc4ccc(C(F)F)nn34)cc(NCCO)n2)C1 (stereo not shown) [II-91]
3. CC1CC(P(C)(C)=O)CN(c2cc(-c3cnc4ccc(C(F)(F)F)nn34)ncn2)C1 (stereo not shown) [II-712]

OUT:
1: 10 to 1000 nM; 2: < 10 nM; 3: > 1000 nM

----------
Biological target: GCN2 kinase (Homo sapiens, UniProt Q9P2K8)
Assay: GCN2 enzyme inhibition assay (Transcreener ADP2 fluorescence polarization)
Format: biochemical
Conditions: compounds of Formula II; 280 μM ATP, 4 nM GCN2 kinase
Task for the reader: assign each of the following molecules its reported Ki.

Observe how each entry below is paired with its result.
IN: Look up Ki with GCN2 kinase (Homo sapiens, UniProt Q9P2K8) for this molecule: CC1CN(c2cc(-c3cnc4ccc(C#N)nn34)ncn2)C(C)C(c2cn[nH]c2)N1 (centres unmarked)
OUT: 10 to 1000 nM

IN: Please answer likewise for CC1(NS(C)(=O)=O)CCCN(c2cc(-c3cnc4ccc(C(F)F)nn34)ncn2)C1 (centres unmarked) [II-445]
OUT: 10 to 1000 nM

// input: 2 molecules below; output: Ki for each
1. CS(=O)(=O)N1CCCC(c2cc(-c3cnc4ccc(C(F)F)nn34)ncn2)C1 (centres unmarked)
2. CC1C(CNS(C)(=O)=O)C(F)(F)C(C)CN1c1cc(-c2cnc3ccc(C(F)F)nn23)ncn1 (single isomer, unassigned) [II-469]

OUT:
1. 10 to 1000 nM
2. 10 to 1000 nM

// input: 8 molecules below; output: Ki for each
1. FC(F)c1ccc2ncc(-c3cc(N4CCOCC45CC5)ncn3)n2n1
2. OCCC1CN(c2cc(-c3cnc4ccc(C(F)F)nn34)ncn2)CCN1 (centres unmarked)
3. CC1CN(C)C(CNS(C)(=O)=O)CN1c1cc(-c2cnc3ccc(C(F)F)nn23)ncn1 (centres unmarked)
4. CN1CCN(c2cc(-c3cnc4ccc(C(F)F)nn34)ncn2)C[C@H]1C1(O)CC1
5. CS(=O)(=O)N1CCCC2(CN(c3cc(-c4cnc5ccc(C(F)F)nn45)ncn3)C2)C1
6. CS(=O)(=O)NC[C@@H]1CN(c2cc(-c3cnc4ccc(C(F)F)nn34)ncn2)C[C@H](C(F)(F)F)O1
7. CC(C)(NS(C)(=O)=O)C1CCCN(c2cc(-c3cnc4ccc(C(F)F)nn34)ccn2)C1 (centres unmarked)
8. CC1CCN(c2cc(-c3cnc4ccc(C(F)F)nn34)ncn2)CC1N=S(C)(C)=O (single isomer, unassigned) [II-633]

OUT:
1. 10 to 1000 nM
2. 10 to 1000 nM
3. 10 to 1000 nM
4. > 1000 nM
5. 10 to 1000 nM
6. < 10 nM
7. 10 to 1000 nM
8. 10 to 1000 nM

// input: 8 molecules below; output: Ki for each
1. Cc1noc([C@@H]2CN(c3cc(-c4cnc5ccc(C(F)(F)F)nn45)ccn3)C[C@@H](C)O2)n1
2. CC(NS(C)(=O)=O)C1CCCN(c2cc(-c3cnc4ccc(C(F)F)nn34)ncn2)C1 (centres unmarked) [II-620]
3. FC(F)c1ccc2ncc(-c3cc(N4CCC5C(C4)C5(F)F)ncn3)n2n1 (centres unmarked)
4. CC(NS(C)(=O)=O)C1CN(c2cc(-c3cnc4ccc(C(F)F)nn34)ncn2)CCN1 (centres unmarked)
5. CS(=O)(=O)NCC1CN(c2cc(-c3cnc4ccc(C(F)F)nn34)ncn2)CCC12CC2 (centres unmarked)
6. CN1CCN(c2cc(-c3cnc4ccc(C(F)F)nn34)ncn2)CC1CCO (centres unmarked)
7. CC(NS(C)(=O)=O)C1CN(c2cc(-c3cnc4ccc(C(F)F)nn34)ncn2)CCN1C (centres unmarked) [II-474]
8. CC(=O)N1CCN(c2cccc(-c3cnc4ccc(C(F)F)nn34)n2)CC1

OUT:
1. 10 to 1000 nM
2. 10 to 1000 nM
3. 10 to 1000 nM
4. 10 to 1000 nM
5. < 10 nM
6. 10 to 1000 nM
7. 10 to 1000 nM
8. > 1000 nM

----------
Biological target: UniProtKB Q9P2K8
Assay: GCN2 enzyme inhibition assay (Transcreener ADP2 fluorescence polarization)
Assay type: biochemical
Settings: compounds of Formula II; 280 μM ATP, 4 nM GCN2 kinase
Task for the reader: assign each of the following compounds its reported Ki.

Observe how each entry below is paired with its result.
IN: Give its Ki value. Item: CC1CC(N=S(C)(C)=O)CN(c2cc(-c3cnc4ccc(C(F)F)nn34)c(F)cn2)C1 (single isomer, unassigned) [II-723]
OUT: 0.01 to 1 µM

IN: Please answer likewise for CC1CCC(CNS(C)(=O)=O)CN1c1cc(-c2cnc3ccc(C(F)F)nn23)ncn1 (stereo not shown) [II-3]
OUT: < 0.01 µM

IN: Please answer likewise for CS(=O)(=O)NCC1CCCN(c2cc(-c3cnc4ccc(C(F)F)nn34)cc(C(F)(F)F)n2)C1 (stereo not shown)
OUT: < 0.01 µM

// below: Ki requested for another compound
IN: Give its Ki value. Item: FC(F)c1ccc2ncc(-c3cc(C4CCCN(C5COC5)C4)ncn3)n2n1 (stereo not shown) [II-180]
OUT: 0.01 to 1 µM
